Assignment: determine reported IC 50, FXa restoring assay for the given binders.
# experimental target: recombinant TFPI of the FXa restoring assay (human, mouse or rat; species not stated for Tables 9 and 10)
# method: cell-based or functional assay
Answers are plain numbers, in µg/mL.

Would you please look over these solved cases?
binder	measurement label	readout value
2A8 HC S31V (Fab, V domains shown) VH: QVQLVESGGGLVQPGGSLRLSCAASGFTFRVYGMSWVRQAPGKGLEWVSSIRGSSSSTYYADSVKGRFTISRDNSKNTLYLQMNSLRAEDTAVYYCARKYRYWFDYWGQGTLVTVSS VL: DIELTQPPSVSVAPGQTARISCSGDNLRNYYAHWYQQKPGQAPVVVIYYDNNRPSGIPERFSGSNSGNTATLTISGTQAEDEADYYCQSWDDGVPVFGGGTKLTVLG	IC 50, FXa restoring assay	0.201
2A8 HC K99L (Fab, V domains shown) VH: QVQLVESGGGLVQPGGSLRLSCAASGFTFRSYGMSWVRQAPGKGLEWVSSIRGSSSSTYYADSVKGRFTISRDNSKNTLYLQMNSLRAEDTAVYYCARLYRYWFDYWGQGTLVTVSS VL: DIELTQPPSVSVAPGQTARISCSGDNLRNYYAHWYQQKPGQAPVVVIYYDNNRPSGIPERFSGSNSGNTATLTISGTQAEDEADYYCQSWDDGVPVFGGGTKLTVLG	IC 50, FXa restoring assay	0.181
2A8 LC Y48F (Fab, V domains shown) VH: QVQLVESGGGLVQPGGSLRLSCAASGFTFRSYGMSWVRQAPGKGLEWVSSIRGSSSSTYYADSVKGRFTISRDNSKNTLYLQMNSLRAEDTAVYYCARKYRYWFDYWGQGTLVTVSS VL: DIELTQPPSVSVAPGQTARISCSGDNLRNYYAHWYQQKPGQAPVVVIFYDNNRPSGIPERFSGSNSGNTATLTISGTQAEDEADYYCQSWDDGVPVFGGGTKLTVLG	IC 50, FXa restoring assay	0.34
4B7 wild-type Fab (Fab, V domains shown) VH: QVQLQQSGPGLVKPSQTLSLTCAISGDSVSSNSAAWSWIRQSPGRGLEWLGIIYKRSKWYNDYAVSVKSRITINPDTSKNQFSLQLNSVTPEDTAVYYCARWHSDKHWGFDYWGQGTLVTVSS VL: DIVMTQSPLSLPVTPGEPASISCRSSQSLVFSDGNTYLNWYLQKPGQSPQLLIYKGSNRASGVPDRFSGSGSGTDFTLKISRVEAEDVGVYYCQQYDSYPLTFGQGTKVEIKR	IC 50, FXa restoring assay	1.46

Note: attention shifts to another entry.
Given the binder 2A8 wild-type Fab (Fab, V domains shown) VH: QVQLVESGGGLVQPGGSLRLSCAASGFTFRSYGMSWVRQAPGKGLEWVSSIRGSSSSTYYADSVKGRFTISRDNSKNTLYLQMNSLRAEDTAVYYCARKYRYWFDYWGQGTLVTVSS VL: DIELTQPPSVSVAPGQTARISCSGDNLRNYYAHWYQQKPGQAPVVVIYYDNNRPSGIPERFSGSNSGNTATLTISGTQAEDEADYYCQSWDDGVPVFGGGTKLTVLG , what is its reported IC 50, FXa restoring assay?
0.7

The measurements presented in this section are drawn from patent US20120108796A1.
